Test system: SF-539 CNS
Assay: NCI tumour cell line growth inhibition, 48 h
Catalogue of TGI readings, one per entry.

Below, 2 molecules whose answers are already recorded.
Cn1ccc2c3c(Oc4ccc(NC(N)=O)cc4)ccnc3ccc21 : > 100 µM
CC1(C)OC1COc1c2occc2cc2ccc(=O)oc12 (stereo not drawn) : > 100 µM

Q) What does the record list as TGI for `O=c1c(-c2ccccc2)c2oc(c1-c1ccccc1)CSCc1cccc(c1)CSC2` ?
A) 60.4 µM

---

System: SF-268 CNS
Assay: NCI tumour cell line growth inhibition, 48 h; in the data active = GI50 below about 0.43 µM; inactive = the rest
Your answer must be one of the following: Yes for active, No for inactive

Nc1n[nH]c2cc(F)c([C@@H]3Nc4ccc5[nH]ncc5c4[C@H]4C5CCC(C5)[C@@H]34)cc12 (stereo partly drawn) : Yes
CC1SC(c2ccc(F)cc2)N(NC(=O)C(O)c2ccccc2)C1=O (stereo not drawn) : No
CCC(=C/[C@H](C)C/C=C/C(C)=C/[C@@H](C)C(=O)[C@@H](C)[C@H](O)[C@@H](C)CC)/C=C/[C@H]1OC(=O)C=C[C@@H]1C : Yes
COCCOc1ccc(-c2nc3ccc(-c4nc5ccc(N6CCN(C)CC6)cc5[nH]4)cc3[nH]2)cc1 : No
Cc1ccc(-n2c3nc(=O)[nH]c(=O)c-3cc3cc([N+](=O)[O-])ccc32)cc1 : No
N#Cc1c[nH]n2c(N=Nc3ccc(Cl)cc3)c(O)nc12 : No

Q) Which outcome was entered for the compound Nc1ccccc1SC(CC(=O)c1ccccc1)c1cccc([N+](=O)[O-])c1 (stereo not drawn) in this test?
A) No

Q) Also need `O=C(Oc1ccc(Cl)cc1)c1ccccc1Nc1ccnc(C(F)(F)F)c1` , thanks.
A) No

Q) Also need `CCN(Cc1ccc(F)cc1)c1cc(Cl)c(CO)c(Cl)c1` , thanks.
A) No

Q) Also need `Cc1nnc(NC(=O)c2nc(S(=O)(=O)Cc3ccc(F)cc3)ncc2Cl)s1` , thanks.
A) No

Q) Also need `Nc1cc(NN=C(c2ccc(O)cc2)c2ccc(O)cc2)c([N+](=O)[O-])cc1[N+](=O)[O-]` , thanks.
A) No

Q) Also need `CC(C)[C@@H]1C=C2CC[C@H]3[C@](C)(CN)CCC[C@]3(C)[C@H]2CC1` , thanks.
A) No

Q) Also need `COc1ccc(CN2C(=O)/C(=C\c3cc(OC)c(OC)c(OC)c3)c3ccccc32)cc1` , thanks.
A) No

Q) Also need `c1ccc(Sc2ncnc3ccccc23)cc1` , thanks.
A) No

Q) Also need `CN1CC[C@@H](NC(=O)Nc2ccc(C#N)cc2)C[C@@H]1c1nc2ccccc2[nH]1` , thanks.
A) No

Q) Also need `O=C(CCCSc1nc(-c2ccccc2)cc(-c2ccccc2)n1)NO` , thanks.
A) No

Q) Also need CCCCCCCCCCCCC(O)c1ccc(C#CCCCCCCCCCO)o1 (stereo not drawn) , thanks.
A) No

Q) Also need COc1ccc(C2[C@@H](c3ccccc3)C(=O)N2c2cc(OC)c(OC)c(OC)c2)cc1F (stereo partly drawn) , thanks.
A) Yes

---

System: SK-MEL-28 melanoma
Assay: NCI tumour cell line growth inhibition, 48 h; in the data active = GI50 below about 0.43 µM; inactive = the rest
Your answer must be one of the following: active, inactive

// known answers, use as guide
CCC(=C/[C@H](C)C/C=C/C(C)=C/[C@@H](C)C(=O)[C@@H](C)[C@H](O)[C@@H](C)CC)/C=C/[C@H]1OC(=O)C=C[C@@H]1C : active
COc1ccc(-c2cn[nH]c2-c2cc(OC)c(OC)c(OC)c2)cc1 : active
Cc1csc(-c2nnc(Nc3ccc(Oc4ncccc4-c4ccnc(N)n4)cc3)c3ccccc23)c1 : inactive

Now for another entry.
Q) Which outcome was entered for the molecule `Cn1ccc2c3c(Oc4ccc(NC(N)=O)cc4)ccnc3ccc21` in this test?
A) inactive

---

System: KM12 colon
Test: NCI tumour cell line growth inhibition, 48 h; in the data active means GI50 below about 0.43 µM; inactive means the rest
Your answer must be one of the following: y (active), n (inactive)

// known answers, use as guide
COc1cc(-c2ccc3cc(OC)c(OC)c(OC)c3c2)cc(OC)c1OC : n
COCCOc1ccc(-c2nc3ccc(-c4nc5ccc(N6CCN(C)CC6)cc5[nH]4)cc3[nH]2)cc1 : n
C[C@]12CCC3c4ccc(O)cc4CCC3C1CC[C@@]2(O)CNC(=O)/C=C/c1ccc(O)c(O)c1 (some centres undefined) : n
CC1SC(c2ccc(F)cc2)N(NC(=O)C(O)c2ccccc2)C1=O (centres undefined) : n
COc1cc(/C(C#N)=C/c2nc3c(N4CCOCC4)nc(Cl)nc3n2C)cc(OC)c1OC : y
Nc1cc(NN=C(c2ccc(O)cc2)c2ccc(O)cc2)c([N+](=O)[O-])cc1[N+](=O)[O-] : n
O=C(/C(=C/c1ccc([N+](=O)[O-])cc1)SCc1ccccc1)c1ccc(Cl)cc1 : n
O=C1C=C[C@@H](COC2OC(CO)C(O)C(O)C2O)O1 (some centres undefined) : n

Now for another entry.
Q) Which outcome was entered for the compound `c1ccc(Sc2ncnc3ccccc23)cc1` in this test?
A) n

---

System: SNB-19 CNS
Assay: NCI tumour cell line growth inhibition, 48 h; in the data active means GI50 below about 0.43 µM; inactive means the rest
Your answer must be one of the following: active, inactive

COc1cc(/C(C#N)=C/c2nc3c(N4CCOCC4)nc(Cl)nc3n2C)cc(OC)c1OC : active
Nc1ccccc1SC(CC(=O)c1ccccc1)c1cccc([N+](=O)[O-])c1 (stereo not given) : inactive
CC(C)[C@@H]1C=C2CC[C@H]3[C@](C)(CN)CCC[C@]3(C)[C@H]2CC1 : inactive
O=C1c2cc3c(cc2-c2c1c1ccc(F)cc1c(=O)n2C[C@H](O)[C@@H](O)[C@H](O)CO)OCO3 : active

Q) Which outcome was entered for the compound `Cc1cc(I)cc(CN(CCCN(C)C)C(C)C)c1O` in this test?
A) inactive

Q) Also need CC1SC(c2ccc(F)cc2)N(NC(=O)C(O)c2ccccc2)C1=O (stereo not given) , thanks.
A) inactive

---

Tested on: SK-MEL-5 melanoma
Assay: NCI tumour cell line growth inhibition, 48 h
assayEndpoint: TGI (µM)
Could you give me the number in µM? Just the number is fine.

O=C(Oc1ccc(Cl)cc1)c1ccccc1Nc1ccnc(C(F)(F)F)c1 : 36.2

Q) What does the record list as TGI for `CCN(CC)C(=S)N/N=C/c1cc([N+](=O)[O-])ccc1O` ?
A) 8.94

---

Test system: OVCAR-5 ovarian
Assay: NCI tumour cell line growth inhibition, 48 h
assayEndpoint: TGI (µM)
Could you give me the number in µM? Just the number is fine.

C[C@]12CCC3c4ccc(O)cc4CCC3C1CC[C@@]2(O)CNC(=O)/C=C/c1ccc(O)c(O)c1 (stereo not given in full) : 46.9
Oc1ccc(-c2nc3ccc(Br)cc3s2)cc1 : 63.8

Now look at this one.
Q) What does the record list as TGI for `O=C1c2cc3c(cc2-c2c1c1ccc(F)cc1c(=O)n2C[C@H](O)[C@@H](O)[C@H](O)CO)OCO3` ?
A) 0.782

---

Catalogue of TGI readings, one per entry.
System: NCI-H226 lung
Experiment: NCI tumour cell line growth inhibition, 48 h
Could you give me the number in µM? Just the number is fine.

COc1ccc(-c2cn[nH]c2-c2cc(OC)c(OC)c(OC)c2)cc1 : 20.6
CCCCCC1=CC(=O)C1(Cl)Cl : 41.5
CN(C)CC1CC/C(=C\c2ccc(O)cc2)C1=O (stereo unspecified) : 25.6
O=C1CCCCN1c1ccccc1C#C/C=C\C#Cc1ccccc1C(F)(F)F : 3.7
Nc1ccccc1SC(CC(=O)c1ccccc1)c1cccc([N+](=O)[O-])c1 (stereo unspecified) : 35.2

Q) What does the record list as TGI for `Cc1nnc(NC(=O)c2nc(S(=O)(=O)Cc3ccc(F)cc3)ncc2Cl)s1` ?
A) 25.7

Q) Also need CCCCCCCCCCCCC(O)c1ccc(C#CCCCCCCCCCO)o1 (stereo unspecified) , thanks.
A) 37.9

---

System: UACC-62 melanoma
Experiment: NCI tumour cell line growth inhibition, 48 h
Catalogue of TGI readings, one per entry.

Q) What does the record list as TGI for `Cc1oc2c(cc(O)c3cc(O)ccc32)c2cccc1-2` ?
A) > 100 µM

Q) Also need COc1ccc(C2[C@@H](c3ccccc3)C(=O)N2c2cc(OC)c(OC)c(OC)c2)cc1F (stereo partly specified) , thanks.
A) > 100 µM

Q) Also need `CN(C)CCn1c2c3ccccc3ccc2c2oc(=O)c3ccccc3c21` , thanks.
A) 71 µM

Q) Also need `CC1=Nc2ccccc2OC(C)=C1N=Nc1ccc2nc(C)[nH]c2c1` , thanks.
A) > 100 µM

Q) Also need `Nc1c(C(=O)Nc2cccc(C(F)(F)F)c2)sc2nc3c(cc12)CCCCC3` , thanks.
A) 16.7 µM

Q) Also need Cc1ccc(NC(=O)CC2Sc3ccccc3NC2=O)cc1C (stereo unspecified) , thanks.
A) > 100 µM
